meta.source: paper PMC6627609

Could you please report measured Inhibition (%) for the items listed next?
- Measured target: LsrK (Salmonella typhimurium)
- Protocol text: biochemical
- Format: biochemical, S. typhimurium
- Study conditions: 50 µM
# respond with the number and nothing more

What value of Inhibition (%) on LsrK (Salmonella typhimurium) does C[C@]12CCC(=O)C=C1C=C[C@@H]1[C@@H]2CC[C@@]2(C)[C@H]1CC[C@@]2(O)CCC(=O)[O-].[K+] [CANRENOIC ACID. POTASSIUM SALT] have? 0

Record lookup: for LsrK (Salmonella typhimurium), what Inhibition (%) belongs to CCn1cc(C(=O)O)c(=O)c2cc(F)c(N3CCN(C)CC3)cc21.CS(=O)(=O)O [PEFLOXACINE MESYLATE] ? 2

Record CC(=O)O[C@@H]1CC2C(C)(C)C(=O)C3OC3[C@]2(C)C2CC[C@@]3(C)[C@H](c4ccoc4)OC(=O)C4OC43[C@@]21C (stereo partly shown) : what is its Inhibition (%) with LsrK (Salmonella typhimurium)? 0

Query for LsrK (Salmonella typhimurium): what Inhibition (%) does the record show for NC(=O)c1cc([N+](=O)[O-])cc([N+](=O)[O-])c1 [NITROMIDE] ? 1

====

- Measured target: LsrK (Salmonella typhimurium, UniProt Q8ZKQ6)
- Sequence (Q8ZKQ6 whole entry): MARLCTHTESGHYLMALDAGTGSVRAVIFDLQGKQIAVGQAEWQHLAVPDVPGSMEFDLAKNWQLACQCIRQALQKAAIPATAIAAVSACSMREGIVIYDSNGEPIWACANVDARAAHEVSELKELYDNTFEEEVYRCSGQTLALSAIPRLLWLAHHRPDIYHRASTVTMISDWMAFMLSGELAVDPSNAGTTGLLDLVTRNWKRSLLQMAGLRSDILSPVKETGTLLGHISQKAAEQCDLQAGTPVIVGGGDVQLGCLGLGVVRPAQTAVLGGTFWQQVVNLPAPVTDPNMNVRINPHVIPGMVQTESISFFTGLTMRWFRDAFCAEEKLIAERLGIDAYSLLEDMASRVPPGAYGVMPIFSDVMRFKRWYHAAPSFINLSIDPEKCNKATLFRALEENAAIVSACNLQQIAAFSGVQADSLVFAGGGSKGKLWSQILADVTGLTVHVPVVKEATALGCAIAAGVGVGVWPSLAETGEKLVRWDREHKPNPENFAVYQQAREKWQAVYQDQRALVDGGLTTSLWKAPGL
- Protocol text: biochemical
- Format: biochemical, S. typhimurium
Structures can show the parent of a compound that is named as a salt.
Values of inhibition at 50 µM greater than or equal to 3% map to 1; values below map to -1.

Given NC[C@@H]1CC[C@@H](N)[C@@H](O[C@H]2[C@H](O)[C@@H](O[C@H]3O[C@H](CO)[C@@H](O)[C@H](N)[C@H]3O)[C@H](N)C[C@@H]2N)O1 , state whether its inhibition at 50 µM is at least 3%. -1

Has CN(C)[C@@H]1C(O)=C(C(N)=O)C(=O)[C@@]2(O)C(O)=C3C(=O)c4c(O)cccc4[C@@](C)(O)[C@H]3C[C@@H]12 [TETRACYCLINE HYDROCHLORIDE] a recorded inhibition at 50 µM greater than or equal to 3%? 1

Assess whether reported inhibition at 50 µM for CC(C(=O)O)c1ccc2c(c1)[nH]c1ccc(Cl)cc12 (centres unmarked) sits at 3% or higher. -1

Is the recorded value of inhibition at 50 µM equal to or greater than 3% for this molecule? COc1cc2nc(N3CCN(C(=O)C4COc5ccccc5O4)CC3)nc(N)c2cc1OC (centres unmarked) [DOXAZOSIN MESYLATE] -1

inhibition at 50 µM >= 3% for COC(=O)c1c(C)c2c(c(C)c1O)OC(=O)c1c(C)c(Cl)c(O)c(Cl)c1O2 ? 1

Does inhibition at 50 µM meet or surpass 3% for CC(C)COCC(CN(Cc1ccccc1)c1ccccc1)N1CCCC1 (centres unmarked) [BEPRIDIL HYDROCHLORIDE] ? 1

API: above_or_equal(metric=inhibition at 50 µM, cutoff=3%) for item Cc1cc(=O)[nH]c(=S)[nH]1 1

====

- Measured target: LsrK (Salmonella typhimurium)
- Protocol text: biochemical
- Assay type: biochemical, S. typhimurium
Structures can show the parent of a compound that is named as a salt.
Label scheme for inhibition at 50 µM: lower than 1% is not met, 1% and above is met.

Given CN(C)[C@@H]1C(O)=C(C(N)=O)C(=O)[C@@]2(O)C(O)=C3C(=O)c4c(O)cccc4[C@@](C)(O)[C@H]3[C@H](O)[C@@H]12 , state whether its inhibition at 50 µM is at least 1%. met

Could you verify whether the entry CC1CCC(NC(=O)N(CCCl)N=O)CC1 (stereo not shown) shows inhibition at 50 µM of no less than 1%? not met

Is inhibition at 50 µM for C=C1CC[C@H](O)C/C1=C/C=C1\CCC[C@]2(C)[C@@H]([C@H](C)/C=C/[C@H](C)C(C)C)CC[C@@H]12 at or above 1%? met

Threshold query (inhibition at 50 µM >= 1%) on COCC1=C(C(=O)OC(C)OC(=O)OC(C)C)N2C(=O)[C@@H](NC(=O)/C(=N\OC)c3csc(N)n3)[C@H]2SC1 (stereo partly shown) met

Record CN(C)c1ccc(O)c2c1C[C@H]1C[C@H]3[C@H](N(C)C)C(O)=C(C(N)=O)C(=O)[C@@]3(O)C(O)=C1C2=O [MINOCYCLINE HYDROCHLORIDE] ; criterion: inhibition at 50 µM no lower than 1%. Met? met

Hi, just wondering whether O=C(O)CCC(=O)c1ccc(-c2ccccc2)cc1 shows inhibition at 50 µM of 1% or higher. met

Decide: inhibition at 50 µM of C=CC(C1=CC(=O)C(OC)=CC1=O)c1ccccc1 (stereo not shown) >= 1%? met

Form field: inhibition at 50 µM at least 1%? Entry: Cc1cc(C)cc(OCC2CNC(=O)O2)c1 (stereo not shown) not met

Does the molecule Cc1ccsc1/C=C/C1=NCCCN1C [MORANTEL CITRATE] have recorded inhibition at 50 µM that is 1% or more? not met

Check if inhibition at 50 µM >= 1% (inclusive). Item: COc1c(-c2coc3cc4c(cc3c2=O)CC(O)C(C)(C)O4)ccc2c1C=CC(C)(C)O2 (stereo not shown) not met

====

- Measured target: LsrK (Salmonella typhimurium, UniProt Q8ZKQ6)
- Protocol text: biochemical
- Format: biochemical, S. typhimurium
Where a name gives a salt, the structure may show the parent alone.
Parameter threshold = 2%. Response is Fulfilled when inhibition at 50 µM meets or exceeds it, else Not fulfilled.

Is reported inhibition at 50 µM greater than or equal to 2% here: CC[N+](CC)(CC)CCOc1cccc(OCC[N+](CC)(CC)CC)c1OCC[N+](CC)(CC)CC [GALLAMINE TRIETHIODIDE] Not fulfilled

Assess whether reported inhibition at 50 µM for Oc1cc(O)c2c(c1)O[C@H](c1cc(O)c(O)c(O)c1)[C@H](O)C2 [EPIGALLOCATECHIN] sits at 2% or higher. Fulfilled

Is the recorded value of inhibition at 50 µM equal to or greater than 2% for this molecule? CCCCCC1C(=O)CCC1CC(=O)O (stereo not shown) [DIHYDROJASMONIC ACID] Not fulfilled

Record CN1CCCC(n2nc(Cc3ccc(Cl)cc3)c3ccccc3c2=O)CC1 (stereo not shown) [AZELASTINE HYDROCHLORIDE] ; criterion: inhibition at 50 µM no lower than 2%. Met? Not fulfilled

Record N=C1C=CC(=C(c2ccc(N)cc2)c2ccc(N)cc2)C=C1 [PARA[…]] ; criterion: inhibition at 50 µM no lower than 2%. Met? Fulfilled

Determine whether measured inhibition at 50 µM meets or exceeds 2% for O=C1C=C2C(=CCOC2O)O1 (stereo not shown) Fulfilled

Is inhibition at 50 µM for NC(=O)C[S+]([O-])C(c1ccccc1)c1ccccc1 (stereo not shown) at or above 2%? Not fulfilled

Is inhibition at 50 µM at least 2%? Consider NCCC[C@H](N)C(=O)O Not fulfilled

// inclusive: inhibition at 50 µM at least 2%? input: NC(=O)c1cccnc1 [NIACINAMIDE] Not fulfilled

I'd appreciate it if you could say whether CN(C)[C@@H]1C(O)=C(C(N)=O)C(=O)[C@@]2(O)C(O)=C3C(=O)c4c(O)ccc(Cl)c4[C@@H](O)[C@H]3C[C@@H]12 [DEMECLOCYCLINE HYDROCHLORIDE] has inhibition at 50 µM at least equal to 2%. Fulfilled

Exam item: decide whether the reported inhibition at 50 µM for Cc1ncc([N+](=O)[O-])n1CCO is at least 2%. Not fulfilled

Determine whether measured inhibition at 50 µM meets or exceeds 2% for Cc1cccc(C)c1N=C1NCCCS1 Not fulfilled

Quick check: does S=c1[nH]cnc2nc[nH]c12 have inhibition at 50 µM greater than or equal to 2%? Not fulfilled

hey, is inhibition at 50 µM for this one >= 2%? Oc1c(I)cc(Cl)c2cccnc12 Not fulfilled

Is the recorded value of inhibition at 50 µM equal to or greater than 2% for this molecule? Clc1ccccc1CN1CCc2sccc2C1 [TICLOPIDINE HYDROCHLORIDE] Not fulfilled

Threshold query (inhibition at 50 µM >= 2%) on CNC(=C[N+](=O)[O-])NCCSCc1ccc(CN(C)C)o1 Not fulfilled

Threshold query (inhibition at 50 µM >= 2%) on CN[C@H](CC(C)C)C(=O)N[C@H]1C(=O)N[C@@H](CC(N)=O)C(=O)N[C@H]2C(=O)N[C@H]3C(=O)N[C@H](C(=O)N[C@H](C(=O)O)c4cc(O)cc(O)c4-c4cc3ccc4O)[C@H](O)c3ccc(c(Cl)c3)Oc3cc2cc(c3O[C@@H]2O[C@H](CO)[C@@H](O)[C@H](O)[C@H]2O[C@H]2C[C@](C)(N)[C@H](O)[C@H](C)O2)Oc2ccc(cc2Cl)[C@H]1O [VANCOMYCIN HYDROCHLORIDE] Not fulfilled

Could you please find out whether C=CC[C@]1(O)CC[C@H]2[C@@H]3CCC4=CC(=O)CCC4=C3C=C[C@@]21C has inhibition at 50 µM that meets 2% or exceeds it? Not fulfilled

Decide: inhibition at 50 µM of C[C@H](CCC(=O)O)[C@H]1CC[C@H]2[C@@H]3[C@H](O)C[C@@H]4C[C@H](O)CC[C@]4(C)[C@H]3C[C@H](O)[C@]12C >= 2%? Not fulfilled

Kindly determine if inhibition at 50 µM recorded for C#C[C@]1(O)CC[C@H]2[C@@H]3CCC4=CC(=O)CC[C@@H]4[C@H]3CC[C@@]21C is above or exactly 2%. Not fulfilled

# bool: inhibition at 50 µM of COc1cc(-c2coc3cc(O)c(OC)c(O)c3c2=O)cc(O)c1OC [[…]] >= 2% Fulfilled

Does the reported inhibition at 50 µM for CCCCC1C(=O)N(c2ccccc2)N(c2ccccc2)C1=O fall at or above the 2% mark? Not fulfilled

Please indicate if the recorded inhibition at 50 µM for C=CC(C1=CC(=O)C=CC1=O)c1ccccc1 (stereo not shown) meets or exceeds 2%. Fulfilled

Kindly determine if inhibition at 50 µM recorded for O=C1C=CC(=C(c2ccc(O)cc2)c2ccc(O)cc2)C=C1 is above or exactly 2%. Fulfilled

Reported inhibition at 50 µM at or above 2%? CN(C)CCC(c1ccccc1)c1ccccn1 (stereo not shown) [PHENIRAMINE MALEATE] Fulfilled

State whether the measured inhibition at 50 µM reaches 2%, counting equality as reaching it, for C[C@H]1C(=O)O[C@@H]2CCN3CC=C(COC(=O)[C@](C)(O)[C@]1(C)O)[C@H]23 Fulfilled

inhibition at 50 µM >= 2% for O=C(O)CCc1nc(-c2ccccc2)c(-c2ccccc2)o1 ? Fulfilled

Dear colleague, could you confirm whether CC(C)=CCC[C@]1(C)C=Cc2c(O)c3c(c(CC=C(C)C)c2O1)O[C@]12C(=C[C@@H]4C[C@H]1C(C)(C)O[C@@]2(C/C=C(/C)C(=O)O)C4=O)C3=O has inhibition at 50 µM at or above 2%? Fulfilled

Form field: inhibition at 50 µM at least 2%? Entry: OC1CCCCC1N1CCC(c2ccccc2)CC1 (stereo not shown) [VESAMICOL HYDROCHLORIDE] Not fulfilled

Textbook exercise: given the entry COc1cc(C)c2c(c1C=O)Oc1c(c(C)c(O)c3c1C(O)OC3=O)OC2=O (stereo not shown) , state whether its inhibition at 50 µM is greater than or equal to 2%. Fulfilled
